system name: p110β (Homo sapiens)
Sequence (P42338 109-1070): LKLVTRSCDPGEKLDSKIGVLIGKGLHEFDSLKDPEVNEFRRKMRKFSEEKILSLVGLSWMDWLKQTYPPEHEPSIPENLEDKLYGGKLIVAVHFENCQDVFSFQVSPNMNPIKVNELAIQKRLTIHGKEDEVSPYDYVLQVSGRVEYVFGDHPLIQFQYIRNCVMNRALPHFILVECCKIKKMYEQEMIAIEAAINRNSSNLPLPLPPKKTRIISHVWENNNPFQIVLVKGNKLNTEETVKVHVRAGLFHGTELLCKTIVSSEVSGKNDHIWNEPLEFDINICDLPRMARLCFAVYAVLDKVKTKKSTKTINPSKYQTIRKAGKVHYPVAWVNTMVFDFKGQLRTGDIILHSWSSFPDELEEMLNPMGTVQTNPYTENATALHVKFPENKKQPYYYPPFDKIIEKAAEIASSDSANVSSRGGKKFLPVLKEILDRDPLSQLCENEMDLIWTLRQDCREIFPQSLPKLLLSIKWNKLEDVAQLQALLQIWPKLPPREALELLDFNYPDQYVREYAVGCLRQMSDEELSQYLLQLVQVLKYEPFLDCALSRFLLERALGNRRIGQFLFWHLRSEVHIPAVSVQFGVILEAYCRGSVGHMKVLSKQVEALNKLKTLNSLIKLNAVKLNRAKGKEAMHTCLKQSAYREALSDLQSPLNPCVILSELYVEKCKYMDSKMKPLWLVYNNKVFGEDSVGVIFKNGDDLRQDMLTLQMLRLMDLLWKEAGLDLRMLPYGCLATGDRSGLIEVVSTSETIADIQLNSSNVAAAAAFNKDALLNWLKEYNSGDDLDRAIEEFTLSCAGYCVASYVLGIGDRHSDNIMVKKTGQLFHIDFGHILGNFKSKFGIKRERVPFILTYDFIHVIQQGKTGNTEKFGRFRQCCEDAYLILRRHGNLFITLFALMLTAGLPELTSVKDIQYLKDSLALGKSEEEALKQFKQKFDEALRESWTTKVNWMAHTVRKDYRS
metric: IC50 (nM)

Some compounds with known IC50 results, for comparison:
compound	quantitative readout
O=C(NC1=Nc2c(ccc(OCCCN3CCOCC3)c2OCC2CCOCC2)C2=NCCN12)c1cccnc1 [Compd 34 e]	18.2
COc1c(OCCCN2CCOCC2)ccc2c1N=C(NC(=O)c1ccc3c(c1)OCO3)N1CCN=C21 [Compd 39 a]	668
COc1c(OCCCCN2CCOCC2)ccc2c1N=C(NC(=O)c1cccnc1)N1CCN=C21 [Compd 32 i]	88.1

1. COc1c(OCCCN2CCOCC2)ccc2c1N=C(NC(=O)c1ccc(N(C)C)nc1)N1CCN=C21 [Compd 39 f]
2. O=C(NC1=Nc2c(ccc(OCCCN3CCOCC3)c2OCC2CCCCC2)C2=NCCN12)c1cccnc1 [Compd 34 d]
Kindly compare 1 with 2 and tell me which has the lower IC50 figure. // caller expects the label of the chosen entry
1
(1: 58.7 nM, 2: 88.5 nM)

I. CCOc1ccc2c(c1OC)N=C(NC(=O)c1cccnc1)N1CCN=C21 [Compd 32 b]
II. COc1c(OCc2ccccc2)ccc2c1N=C(NC(=O)c1cccnc1)N1CCN=C21 [Compd 30]
III. COc1c(O)ccc2c1N=C(NC(=O)c1cccnc1)N1CCN=C21 [Compd 31]
List these items ordered by IC50, big to small. Arrange the labels as the request states and list them.
II, III, I

---

Recorded IC50 values (p110α (Homo sapiens)) are given below.
metric: IC50 (nM)

compound	system name	IC50 [nM]
O=C(NC1=Nc2c(ccc(OCCCN3CCOCC3)c2OCC2CCOCC2)C2=NCCN12)c1cccnc1	p110α (Homo sapiens)	2.1
COc1c(OCCCN(C)C)ccc2c1N=C(NC(=O)c1cccnc1)N1CCN=C21	p110α (Homo sapiens)	3.6
COc1c(OCCCN2CCOCC2)ccc2c1N=C(NC(=O)c1ccnc(N)c1)N1CCN=C21	p110α (Homo sapiens)	6.2

a. COc1c(OCCCN2CCCCC2)ccc2c1N=C(NC(=O)c1cccnc1)N1CCN=C21
b. COc1c(OCCCN2CCOCC2)ccc2c1N=C(NC(=O)c1cccnc1)N1CCN=C21
c. COc1c(OCCCN2CCOCC2)ccc2c1N=C(NC(=O)c1cncnc1)N1CCN=C21
d. COc1c(OCC(C)C)ccc2c1N=C(NC(=O)c1cccnc1)N1CCN=C21
List these items ordered by IC50, big to small. Arrange the labels as the request states and list them.
c, d, a, b
(c: 132 nM, d: 8 nM, a: 2.9 nM, b: 1.8 nM)

---

system name: UniProt:P42338
metric: IC50 (nM)

Some molecules with known IC50 results, for comparison:
compound	IC50 (nM)
COc1c(OCCCN2CCOCC2)ccc2c1N=C(NC(=O)c1cccnc1)N1CCN=C21	20.8
COc1c(OCCCN2CCOCC2)ccc2c1N=C(NC(=O)c1ccncc1)N1CCN=C21	63.7
COc1c(OCCCN2CCOCC2)ccc2c1N=C(NC(=O)c1cnc(N)nc1C)N1CCN=C21	1
COc1c(OCCCN(C)C)ccc2c1N=C(NC(=O)c1cccnc1)N1CCN=C21	18
O=C(NC1=Nc2c(ccc(OCCCN3CCOCC3)c2OCc2ccncc2)C2=NCCN12)c1cccnc1	19.3

I. O=C(NC1=Nc2c(ccc(OCCCN3CCOCC3)c2O)C2=NCCN12)c1cccnc1
II. COc1c(OCCCN2CCCCC2)ccc2c1N=C(NC(=O)c1cccnc1)N1CCN=C21
So which one has the bigger IC50 here, I or II ? // caller expects the label of the chosen entry
I
(I: 55.6 nM, II: 18.3 nM)

a. COc1c(OCC(C)C)ccc2c1N=C(NC(=O)c1cccnc1)N1CCN=C21
b. COc1c(OCCCN2CCOCC2)ccc2c1N=C(NC(=O)c1cnccn1)N1CCN=C21
c. COc1c(OCCCN2CCOCC2)ccc2c1N=C(NC(=O)c1ccnc(N)c1)N1CCN=C21
Please put the entries in order of rising IC50. Arrange the labels as the request states and list them.
c, a, b

1. COc1c(OCCCN2CCOCC2)ccc2c1N=C(NC(=O)c1cncnc1)N1CCN=C21
2. CCCOc1c(OCCCN2CCOCC2)ccc2c1N=C(NC(=O)c1cccnc1)N1CCN=C21
3. CC(C)COc1c(OCCCN2CCOCC2)ccc2c1N=C(NC(=O)c1cccnc1)N1CCN=C21
Please put the entries in order of rising IC50. Arrange the labels as the request states and list them.
2, 3, 1

---

Recorded IC50 values (p110β (Homo sapiens, UniProt P42338)) are given below.
metric: IC50 (nM)

Some molecules with known IC50 results, for comparison:
molecule	IC50, nM
COc1c(OCCN2CCOCC2)ccc2c1N=C(NC(=O)c1cccnc1)N1CCN=C21 [Compd 32 h]	11.2
COc1c(OCCCN2CCOCC2)ccc2c1N=C(NC(=O)c1sc(C)nc1C)N1CCN=C21 [Compd 39 b]	7.8

1. COc1c(OCCCN2CCOCC2)ccc2c1N=C(NC(=O)c1ccc(N)nc1)N1CCN=C21 [Compd 39 e]
2. C=CCOc1c(OCCCN2CCOCC2)ccc2c1N=C(NC(=O)c1cccnc1)N1CCN=C21 [Compd 34 b]
Kindly compare 1 with 2 and tell me which has the lower IC50 figure. // caller expects the label of the chosen entry
1
(1: 7.9 nM, 2: 22.6 nM)
